The measurements presented in this section are drawn from patent US20260193366A1.

Reported Relative Inhibition of IL-13 induced TARC IC50 is given for each of the following binders.
Target: T1, hIL-4Rα on cells (human, UniProt P24394 26-825)
T1 sequence: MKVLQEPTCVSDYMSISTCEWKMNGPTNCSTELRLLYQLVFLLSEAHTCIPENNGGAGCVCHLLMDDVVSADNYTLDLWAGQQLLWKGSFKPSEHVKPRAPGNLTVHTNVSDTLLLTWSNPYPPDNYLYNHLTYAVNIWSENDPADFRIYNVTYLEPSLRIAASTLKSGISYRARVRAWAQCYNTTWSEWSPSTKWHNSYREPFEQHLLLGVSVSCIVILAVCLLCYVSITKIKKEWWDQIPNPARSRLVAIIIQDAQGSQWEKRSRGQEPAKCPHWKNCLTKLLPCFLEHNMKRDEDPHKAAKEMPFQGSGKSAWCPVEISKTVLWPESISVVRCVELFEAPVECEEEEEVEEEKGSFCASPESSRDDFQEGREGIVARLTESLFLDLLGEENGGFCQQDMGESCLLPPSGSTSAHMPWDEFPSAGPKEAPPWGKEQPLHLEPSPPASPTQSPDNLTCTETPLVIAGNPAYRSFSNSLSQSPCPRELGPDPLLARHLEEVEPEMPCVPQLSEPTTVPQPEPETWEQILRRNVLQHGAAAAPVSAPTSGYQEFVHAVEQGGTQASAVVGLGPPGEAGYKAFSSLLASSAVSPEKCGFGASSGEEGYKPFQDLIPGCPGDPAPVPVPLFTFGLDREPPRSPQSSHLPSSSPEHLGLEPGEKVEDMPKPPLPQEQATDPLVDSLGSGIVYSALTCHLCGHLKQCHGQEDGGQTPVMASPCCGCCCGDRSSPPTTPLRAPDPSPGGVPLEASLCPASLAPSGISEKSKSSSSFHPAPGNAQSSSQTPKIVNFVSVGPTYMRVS
Experiment: cell-based or functional assay
RECORDED_METRIC: Relative Inhibition of IL-13 induced TARC IC50

BINDER	RECORDED_RESULT
Construct 29 (mAb437) (antibody, IgG4, V domains shown, VH/VL only) VH: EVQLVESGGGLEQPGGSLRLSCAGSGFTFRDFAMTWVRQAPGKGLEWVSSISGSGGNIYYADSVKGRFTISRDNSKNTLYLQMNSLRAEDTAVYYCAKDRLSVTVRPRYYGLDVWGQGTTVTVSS VL: DIVMTQSPLSLPVTPGEPASISCTSSQSLLYSIGYNYVDWYLQKSGQSPQLLIYLGNKRASGVPDRFSGSGSGTDFTLKISRVEAEDVGFYYCMQSLTSPYTFGQGTKLEIK	1.39 relative to dupilumab
Construct 27 (mAb435) (antibody, IgG4, V domains shown, VH/VL only) VH: EVQLVESGGGLEQPGGSLRLSCAGSGFTFTDFAMTWVRQAPGKGLEWVSSISGSGGNKYYADSVKGRFTISRDNSKNTLYLQMNSLRAEDTAVYYCAKDRLSVTVRPRYYGLDVWGQGTTVTVSS VL: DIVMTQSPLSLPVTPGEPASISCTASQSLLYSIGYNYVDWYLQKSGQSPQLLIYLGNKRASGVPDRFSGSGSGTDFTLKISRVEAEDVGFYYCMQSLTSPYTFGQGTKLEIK	1.83 relative to dupilumab
